System: Human T-lymphoblastic leukemia cell line CEM
protocol-details: In vitro cytotoxicity, Calcein AM assay, CEM
Format: cell-based
experimental-conditions: 72 hours
readout-type: GI50 (µM)

INSERT INTO results (compound, subject_of_test, unit_symbol, censor_symbol, obs_value) VALUES
  ('Cc1ccc(O)c(CNc2ncnc3c2ncn3C2OC(CO)C(O)C2O)c1 (stereo not drawn) [2-hydroxy-5-methylbenzylamino, reference compound]', 'Human T-lymphoblastic leukemia cell line CEM', 'µM', '=', 0.9),
  ('COc1ccc(CNc2nc(Cl)nc3c2ncn3C2OC(CO)C(O)C2O)c(O)c1 (stereo not drawn) [Compound 11]', 'Human T-lymphoblastic leukemia cell line CEM', 'µM', '>', 100),
  ('COc1c(O)cccc1CNc1ncnc2c1ncn2[C@@H]1O[C@H](CO)[C@@H](O)[C@H]1O [2-methoxy-3-hydroxybenzylamino, reference compound]', 'Human T-lymphoblastic leukemia cell line CEM', 'µM', '=', 1.9),
  ('COc1ccc(CNc2ncnc3c2ncn3[C@@H]2O[C@H](CO)[C@@H](O)[C@H]2O)c(O)c1 [2-hydroxy-4-methoxybenzylamino, reference compound]', 'Human T-lymphoblastic leukemia cell line CEM', 'µM', '=', 0.3),
  ('OC[C@H]1O[C@@H](n2cnc3c(NCc4cc(F)ccc4O)ncnc32)[C@H](O)[C@@H]1O [2-hydroxy-5-fluorobenzylamino, reference compound]', 'Human T-lymphoblastic leukemia cell line CEM', 'µM', '=', 52),
  ('COc1cccc(CNc2ncnc3c2ncn3C2OC(CO)C(O)C2O)c1O (stereo not drawn) [2-hydroxy-3-methoxybenzylamino, reference compound]', 'Human T-lymphoblastic leukemia cell line CEM', 'µM', '=', 40);

====

Tested on: neutrophils
protocol-details: ANCA stimulated neutrophil degranulation (MPO release, ELISA)
Type: cell-based
experimental-conditions: Homo sapiens, 0.5 h, TNFα primed, MPO release over 30 minute period (FIG. 10), read-out: IC50 of inhibition of ANCA stimulated neutrophil degranulation
readout-type: IC50 (µM)

INSERT INTO assay_data (molecule, subject_of_test, readout_type, obs_value) VALUES
  ('COc1cccc(CNc2nc(Cl)nc3c2ncn3C2OC(CO)C(O)C2O)c1O (stereo not shown)', 'neutrophils', 'IC50', 3);

====

Test system: human myeloid leukemia K-562
protocol-details: In vitro cytotoxicity, Calcein AM assay, K-562
Format: cell-based
experimental-conditions: 72 hours
Quick list: GI50 per entry.
readout-type: GI50

INSERT INTO measurements (compound, obs_value) VALUES
  ('COc1c(O)cccc1CNc1nc(Cl)nc2c1ncn2C1OC(CO)C(O)C1O (stereo not shown) [Compound 21]', '> 100 µM'),
  ('COc1ccc(CNc2nc(Cl)nc3c2ncn3C2OC(CO)C(O)C2O)c(O)c1 (stereo not shown) [Compound 11]', '> 100 µM'),
  ('COc1cccc(CNc2ncnc3c2ncn3C2OC(CO)C(O)C2O)c1O (stereo not shown) [2-hydroxy-3-methoxybenzylamino, reference compound]', '> 100 µM'),
  ('COc1ccc(CNc2ncnc3c2ncn3[C@@H]2O[C@H](CO)[C@@H](O)[C@H]2O)c(O)c1 [2-hydroxy-4-methoxybenzylamino, reference compound]', '28 µM');

====

Tested on: neutrophils
protocol-details: Neutrophil degranulation, release of myeloperoxidase, ELISA
Format: cell-based
experimental-conditions: Homo sapiens, primed neutrophils, ELISA (FIG. 4)
pIC50: −log10 of the molar value.
readout-type: pIC50

INSERT INTO results (compound, readout_type, obs_value) VALUES
  ('COc1cccc(CNc2nc(Cl)nc3c2ncn3C2OC(CO)C(O)C2O)c1O (stereo not shown)', 'pIC50', 5.40);

====

GI50 values for the compounds below.
System: human myeloid leukemia K-562
protocol-details: In vitro cytotoxicity, Calcein AM assay, K-562
Type: cell-based
experimental-conditions: 72 hours
readout-type: GI50

INSERT INTO measurements (compound, obs_value) VALUES
  ('OC[C@H]1O[C@@H](n2cnc3c(NCc4cc(F)ccc4O)ncnc32)[C@H](O)[C@@H]1O [2-hydroxy-5-fluorobenzylamino, reference compound]', '> 100 µM'),
  ('Cc1cccc(CNc2nc(Cl)nc3c2ncn3C2OC(CO)C(O)C2O)c1O (stereo not drawn)', '> 100 µM'),
  ('OC[C@H]1O[C@@H](n2cnc3c(NCc4cc(Cl)ccc4O)nc(Cl)nc32)[C@H](O)[C@@H]1O', '> 100 µM');
